Each recorded value in this set is attributed to patent US6710168B1.

# Tested on: Enterococcus faecalis (ATCC 29212)
# protocol-notes: MIC susceptibility test, microdilution with MTT readout
# Assay type: cell-based
# setup-conditions: Enterococcus faecalis ATCC29212; read-out: MIC EF
measured-parameter: MIC (µg/mL)
Hi! Could you send only the number? It should be in µg/mL, unit omitted.

• CN[C@@H](CC(C)C)C(=O)N[C@H]1C(=O)N[C@@H](CC(N)=O)C(=O)N[C@H]2C(=O)NC3C(=O)N[C@H](C(=O)N[C@@H](C(=O)O)c4cc(O)cc(O)c4-c4cc3ccc4O)[C@H](O)c3ccc(c(Cl)c3)Oc3cc2cc(c3OC2OC(CNCc3cc(Cl)ccc3O)C(O)C(O)C2OC2CC(C)(N)C(O)C(C)O2)Oc2ccc(cc2Cl)[C@H]1O (some centres unmarked) [XXXIX] = 2.5

Please examine the following record next.
Record lookup: for Enterococcus faecalis (ATCC 29212), what MIC belongs to CN[C@@H](CC(C)C)C(=O)N[C@H]1C(=O)N[C@@H](CC(N)=O)C(=O)N[C@H]2C(=O)NC3C(=O)N[C@H](C(=O)N[C@@H](C(=O)O)c4cc(O)cc(O)c4-c4cc3ccc4O)[C@H](O)c3ccc(c(Cl)c3)Oc3cc2cc(c3OC2OC(CSc3nc(C)cc(O)n3)C(O)C(O)C2OC2CC(C)(N)C(O)C(C)O2)Oc2ccc(cc2Cl)[C@H]1O (some centres unmarked) [LXXVIII] ? 0.63

====

# Tested on: Enterococcus faecium CL5137, VanA
# protocol-notes: MIC susceptibility test
# Assay type: cell-based
# setup-conditions: Enterococcus faecium CL5137, VanA
measured-parameter: MIC CL5137

• CNC(CC(C)C)C(=O)NC1C(=O)NC(CC(N)=O)C(=O)NC2C(=O)NC3C(=O)NC(C(=O)NC(C(=O)O)c4cc(O)cc(O)c4-c4cc3ccc4O)C(O)c3ccc(c(Cl)c3)Oc3cc2cc(c3OC2OC(CN)C(O)C(O)C2OC2CC(C)(N)C(O)C(C)O2)Oc2ccc(cc2Cl)C1O (stereo not drawn) [XLVII, Glucose-C6-amine Vancomycin] = 50< μg/mL
• CNC(CC(C)C)C(=O)NC1C(=O)NC(CC(N)=O)C(=O)NC2C(=O)NC3C(=O)NC(C(=O)NC(C(=O)O)c4cc(O)cc(O)c4-c4cc3ccc4O)C(O)c3ccc(c(Cl)c3)Oc3cc2cc(c3OC2OC(CN=P(c3ccccc3)(c3ccccc3)c3ccccc3)C(O)C(O)C2OC2CC(C)(NCc3ccc(-c4ccc(Cl)cc4)cc3)C(O)C(C)O2)Oc2ccc(cc2Cl)C1O.O=C(O)C(F)(F)F (stereo not drawn) [CXXXVI] = 5.0 µg/mL

// moving on: another record for MIC CL5137
Given CNC(CC(C)C)C(=O)NC1C(=O)NC(CC(N)=O)C(=O)NC2C(=O)NC3C(=O)NC(C(=O)NC(C(=O)O)c4cc(O)cc(O)c4-c4cc3ccc4O)C(O)c3ccc(c(Cl)c3)Oc3cc2cc(c3OC2OC(CNCc3ccc(-c4ccc(Cl)cc4)o3)C(O)C(O)C2OC2CC(C)(N)C(O)C(C)O2)Oc2ccc(cc2Cl)C1O (stereo not drawn) [XXX] , state its recorded MIC CL5137. 50< μg/mL

====

# Tested on: Bacillus cereus (ATCC 11778)
# protocol-notes: MIC susceptibility test, microdilution with MTT readout
# Assay type: cell-based
# setup-conditions: Bacillus ceres ATCC11778
Quick list: MIC BC per entry.

Quick one: MIC BC for CNC(CC(C)C)C(=O)NC1C(=O)NC(CC(N)=O)C(=O)NC2C(=O)NC3C(=O)NC(C(=O)NC(C(=O)O)c4cc(O)cc(O)c4-c4cc3ccc4O)C(O)c3ccc(c(Cl)c3)Oc3cc2cc(c3OC2OC(CI)C(O)C(O)C2OC2CC(C)(NCc3ccc(-c4ccc(Cl)cc4)cc3)C(O)C(C)O2)Oc2ccc(cc2Cl)C1O (stereo not drawn) ? 0.32 µg/mL

Can you share its MIC BC? I mean this molecule: CNC(CC(C)C)C(=O)NC1C(=O)NC(CC(N)=O)C(=O)NC2C(=O)NC3C(=O)NC(C(=O)NC(C(=O)O)c4cc(O)cc(O)c4-c4cc3ccc4O)C(O)c3ccc(c(Cl)c3)Oc3cc2cc(c3OC2OC(CSc3cccc(Cl)c3)C(O)C(O)C2OC2CC(C)(N)C(O)C(C)O2)Oc2ccc(cc2Cl)C1O (stereo not drawn) 0.63 µg/mL

Return reported MIC BC; argument: CNC(CC(C)C)C(=O)NC1C(=O)NC(CC(N)=O)C(=O)NC2C(=O)NC3C(=O)NC(C(=O)NC(C(=O)O)c4cc(O)cc(O)c4-c4cc3ccc4O)C(O)c3ccc(c(Cl)c3)Oc3cc2cc(c3OC2OC(CSc3ccccc3)C(O)C(O)C2OC2CC(C)(N)C(O)C(C)O2)Oc2ccc(cc2Cl)C1O (stereo not drawn) 1.3 µg/mL

====

# Test system: Enterococcus faecalis CL5244, VanB
# protocol-notes: MIC susceptibility test
# Format: cell-based
# setup-conditions: Enterococcus faecalis CL5244, VanB; read-out: MIC CL5244
measured-parameter: MIC (µg/mL)
Write the answer as a number in µg/mL, unit excluded.

Entry CN[C@@H](CC(C)C)C(=O)N[C@H]1C(=O)N[C@@H](CC(N)=O)C(=O)N[C@H]2C(=O)NC3C(=O)N[C@H](C(=O)N[C@@H](C(=O)O)c4cc(O)cc(O)c4-c4cc3ccc4O)[C@H](O)c3ccc(c(Cl)c3)Oc3cc2cc(c3OC2OC(CSc3nc(N)cc(O)n3)C(O)C(O)C2OC2CC(C)(N)C(O)C(C)O2)Oc2ccc(cc2Cl)[C@H]1O (some centres unmarked) has what MIC? 6.3

Please look up its MIC: CN[C@@H](CC(C)C)C(=O)N[C@H]1C(=O)N[C@@H](CC(N)=O)C(=O)N[C@H]2C(=O)NC3C(=O)N[C@H](C(=O)N[C@@H](C(=O)O)c4cc(O)cc(O)c4-c4cc3ccc4O)[C@H](O)c3ccc(c(Cl)c3)Oc3cc2cc(c3OC2OC(CSc3nccc(N)n3)C(O)C(O)C2OC2CC(C)(N)C(O)C(C)O2)Oc2ccc(cc2Cl)[C@H]1O (some centres unmarked) 3.2

====

# Tested on: Bacillus cereus (ATCC 11778)
# protocol-notes: MIC susceptibility test, microdilution with MTT readout
# Type: cell-based
# setup-conditions: Bacillus ceres ATCC11778
We label by threshold. Values of MIC BC strictly beneath 1 µg/mL are Satisfied. Values of 1 µg/mL and up are Not satisfied.

Take a look at these entries with their results.
• CNC(=S)NCC1OC(Oc2c3cc4cc2Oc2ccc(cc2Cl)C(O)C2NC(=O)C(NC(=O)C4NC(=O)C(CC(N)=O)NC(=O)C(NC(=O)C(CC(C)C)NC)C(O)c4ccc(c(Cl)c4)O3)c3ccc(O)c(c3)-c3c(O)cc(O)cc3C(C(=O)O)NC2=O)C(OC2CC(C)(N)C(O)C(C)O2)C(O)C1O (centres unmarked) [XXXII] = Not satisfied
• CNC(CC(C)C)C(=O)NC1C(=O)NC(CC(N)=O)C(=O)NC2C(=O)NC3C(=O)NC(C(=O)NC(C(=O)O)c4cc(O)cc(O)c4-c4cc3ccc4O)C(O)c3ccc(c(Cl)c3)Oc3cc2cc(c3OC2OC(CN=P(c3ccccc3)(c3ccccc3)c3ccccc3)C(O)C(O)C2OC2CC(C)(NCc3ccc(-c4ccc(Cl)cc4)cc3)C(O)C(C)O2)Oc2ccc(cc2Cl)C1O.O=C(O)C(F)(F)F (centres unmarked) [CXXXVI] = Not satisfied
• CNC(CC(C)C)C(=O)NC1C(=O)NC(CC(N)=O)C(=O)NC2C(=O)NC3C(=O)NC(C(=O)NC(C(=O)O)c4cc(O)cc(O)c4-c4cc3ccc4O)C(O)c3ccc(c(Cl)c3)Oc3cc2cc(c3OC2OC(CNC(=O)c3ccc(-c4ccc(Cl)cc4)cc3)C(O)C(O)C2OC2CC(C)(N)C(O)C(C)O2)Oc2ccc(cc2Cl)C1O (centres unmarked) [XXXVIII] = Satisfied
• CCCCCCCCCCCCCC(=O)NCC1OC(Oc2c3cc4cc2Oc2ccc(cc2Cl)C(O)C2NC(=O)C(NC(=O)C4NC(=O)C(CC(N)=O)NC(=O)C(NC(=O)C(CC(C)C)NC)C(O)c4ccc(c(Cl)c4)O3)c3ccc(O)c(c3)-c3c(O)cc(O)cc3C(C(=O)O)NC2=O)C(OC2CC(C)(N)C(O)C(C)O2)C(O)C1O (centres unmarked) [XXXV, Glucose-C6-N-myristoyl Vancomycin] = Not satisfied
• CNC(CC(C)C)C(=O)NC1C(=O)NC(CC(N)=O)C(=O)NC2C(=O)NC3C(=O)NC(C(=O)NC(C(=O)O)c4cc(O)cc(O)c4-c4cc3ccc4O)C(O)c3ccc(c(Cl)c3)Oc3cc2cc(c3OC2OC(CNC(=O)c3ccccc3I)C(O)C(O)C2OC2CC(C)(N)C(O)C(C)O2)Oc2ccc(cc2Cl)C1O (centres unmarked) [XXXVI, Glucose-C6-N-2-iodobenzoyl Vancomycin] = Not satisfied

Is MIC BC strictly under 1 µg/mL for the entry CNC(CC(C)C)C(=O)NC1C(=O)NC(CC(N)=O)C(=O)NC2C(=O)NC3C(=O)NC(C(=O)NC(C(=O)O)c4cc(O)cc(O)c4-c4cc3ccc4O)C(O)c3ccc(c(Cl)c3)Oc3cc2cc(c3OC2OC(CNC(=O)CN)C(O)C(O)C2OC2CC(C)(N)C(O)C(C)O2)Oc2ccc(cc2Cl)C1O (centres unmarked) [XXXIV] ? Not satisfied
